Biological target: human PTH1 receptor (Homo sapiens)
Sequence (Q03431 27-593): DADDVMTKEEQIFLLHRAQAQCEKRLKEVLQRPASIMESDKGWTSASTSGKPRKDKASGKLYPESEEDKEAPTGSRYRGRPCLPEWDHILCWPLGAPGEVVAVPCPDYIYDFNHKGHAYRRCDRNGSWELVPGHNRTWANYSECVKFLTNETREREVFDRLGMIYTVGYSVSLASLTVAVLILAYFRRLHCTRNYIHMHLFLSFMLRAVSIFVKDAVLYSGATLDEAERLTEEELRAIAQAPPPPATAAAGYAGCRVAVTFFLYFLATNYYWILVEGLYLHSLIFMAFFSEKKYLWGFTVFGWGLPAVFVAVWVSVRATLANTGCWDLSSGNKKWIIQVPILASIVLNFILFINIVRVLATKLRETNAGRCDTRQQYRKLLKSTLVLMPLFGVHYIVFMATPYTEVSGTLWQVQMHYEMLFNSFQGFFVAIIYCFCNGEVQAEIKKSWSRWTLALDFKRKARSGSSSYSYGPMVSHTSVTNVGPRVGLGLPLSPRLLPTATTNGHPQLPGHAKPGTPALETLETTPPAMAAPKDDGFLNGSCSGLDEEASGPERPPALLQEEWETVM
Test: In vitro cAMP signal activity in HKRK-B7 cells (LLC-PK1 cells overexpressing the human PTH1 receptor)
Format: cell-based
Conditions: HKRK-B7 cells; compound at 1×10^−3 M; cAMP produced as percentage of that produced by hPTH(1-34) at 100 nM
Label key: True means cAMP production activity (%) under 70%; False means cAMP production activity (%) of 70% or more.

>>> label_value("Cc1cc(S(=O)(=O)NC(CO)(CO)CO)ccc1/C=C/S(=O)(=O)N1CCC2(CC1)N=C(c1cccc(C(F)(F)F)c1)NC2=O [Compound 595]")
"True"
>>> label_value("CN[C@@H]1CCN(C(=O)c2cc(C)c(/C=C/S(=O)(=O)N3CCC4(CC3)N=C(c3cccc(OC(F)(F)F)c3)NC4=O)c(C)c2)C1 [Compound 398]")
"True"
>>> label_value("Cc1cc(C(=O)N(C)C)cc(C)c1/C=C/S(=O)(=O)N1CCC2(CC1)N=C(C1CCC(CCC(F)(F)F)CC1)NC2=O (stereo not drawn) [Compound 994]")
"False"
>>> label_value("Cc1cc(N2C(=O)CN(C)C2=O)cc(C)c1CCS(=O)(=O)N1CCC2(CC1)N=C(C1CCC(CCC(F)(F)F)CC1)NC2=O (stereo not drawn) [Compound 760]")
"False"
>>> label_value("Cc1cc(C(=O)N(C)C)ccc1CCS(=O)(=O)N1CCC2(CC1)N=C(COc1ccc(F)c(F)c1F)NC2=O [Compound 176]")
"False"
